assay: Half life in mouse at 3 mg/kg, iv; format: ADME, organism-based; parameters: dose 3 mg/kg, route intravenous; settings: in vivo
Measured Endpoint: half-life
Put your answer as a value accompanied by its unit after it.

Notebook: `CC(C)(C)CC[C@H](c1ccc(C(=O)NCc2nn[nH]n2)cc1)N1C(=O)C(c2cc(Cl)cc(Cl)c2)=N[C@]12CC[C@@H](C(C)(C)C)CC2` , half-life read as 660 min

* * *

The next entries give measured log10 of IC50 for Glucagon receptor (Mus musculus, UniProt Q61606).
Scale: decimal log of IC50, IC50 in nM.

Below, each entry is followed by its recorded log10 of IC50 result.
INSERT INTO assay_data (compound, tgt, quantitative_result) VALUES
  ('C[C@H](c1ccc(C(=O)NCCC(=O)O)cc1)N1C(=O)C(c2cc(Cl)cc(Cl)c2)=N[C@]12CC[C@@H](C(C)(C)C)CC2', 'Glucagon receptor (Mus musculus, UniProt Q61606)', 3.08),
  ('CC(CN1C(=O)C(c2cc(Cl)cc(Cl)c2)=N[C@]12CC[C@@H](C(C)(C)C)CC2)c1ccc(C(=O)NCCC(=O)O)cc1 (some centres not stated)', 'Glucagon receptor (Mus musculus, UniProt Q61606)', 3.52),
  ('CC1(CC[C@H](c2ccc(C(=O)NCc3nn[nH]n3)cc2)N2C(=O)C(c3cc(Cl)cc(Cl)c3)=N[C@]23CC[C@@H](C(C)(C)C)CC3)CC1', 'Glucagon receptor (Mus musculus, UniProt Q61606)', 2.04),
  ('CC(C)(C)[C@H]1CC[C@]2(CC1)N=C(c1ccc(C(F)(F)F)cc1)C(=O)N2Cc1ccc(C(=O)NCCC(=O)O)cc1', 'Glucagon receptor (Mus musculus, UniProt Q61606)', 3.98),
  ('C[C@H](c1ccc(C(=O)NC[C@@H](O)C(=O)O)cc1)N1C(=O)C(c2cc(Cl)cc(Cl)c2)=N[C@]12CC[C@@H](C(C)(C)C)CC2', 'Glucagon receptor (Mus musculus, UniProt Q61606)', 3.04),
  ('CC[C@H](c1ccc(C(=O)NCc2nn[nH]n2)cc1)N1C(=O)C(c2cc(Cl)cc(Cl)c2)=N[C@]12CC[C@@H](C(C)(C)C)CC2', 'Glucagon receptor (Mus musculus, UniProt Q61606)', 2.57),
  ('CC(C)[C@H]1CC[C@]2(CC1)N=C(c1cc(Cl)cc(Cl)c1)C(=O)N2[C@H](CCC(C)(C)C)c1ccc(C(=O)NCc2nn[nH]n2)cc1', 'Glucagon receptor (Mus musculus, UniProt Q61606)', 2.30),
  ('C[C@H](c1ccc(C(=O)NCCC(=O)O)cc1)N1C(=O)C(c2ccc(F)cc2)=N[C@]12CC[C@@H](C(C)(C)C)CC2', 'Glucagon receptor (Mus musculus, UniProt Q61606)', 3.40);

Notebook: `CC(C)(C)CC[C@H](c1ccc(C(=O)NCc2nn[nH]n2)cc1)N1C(=O)C(c2ccc(F)c(F)c2)=N[C@]12CC[C@@H](C(C)(C)C)CC2` , log10 of IC50 read as 2.23

Notebook: `C[C@H](CC(=O)O)NC(=O)c1ccc([C@@H](CCC(C)(C)C)N2C(=O)C(c3cc(Cl)cc(Cl)c3)=N[C@]23CC[C@@H](C(C)(C)C)CC3)cc1` , log10 of IC50 read as 3.79

Notebook: `Cc1cccc(C2=N[C@]3(CC[C@@H](C(C)(C)C)CC3)N([C@H](C)c3ccc(C(=O)NCCC(=O)O)cc3)C2=O)c1` , log10 of IC50 read as 3.23

Notebook: `CC(C)(C)CC[C@H](c1ccc(C(=O)NCc2nn[nH]n2)cc1)N1C(=O)C(c2cc(F)cc(F)c2)=N[C@]12CC[C@@H](C(C)(C)C)CC2` , log10 of IC50 read as 2.15

Notebook: `CC(C)(C)CC[C@H](c1ccc(C(=O)NCCC(=O)O)cc1)N1C(=O)C(c2cc(Cl)cc(Cl)c2)=N[C@]12CC[C@@H](C(C)(C)C)CC2` , log10 of IC50 read as 2.72

Notebook: `C[C@H](c1ccc(C(=O)NC[C@H](O)C(=O)O)cc1)N1C(=O)C(c2cc(Cl)cc(Cl)c2)=N[C@]12CC[C@@H](C(C)(C)C)CC2` , log10 of IC50 read as 3.18

Notebook: `C[C@H](c1ccc(C(=O)NCCC(=O)O)cc1)N1C(=O)C(c2cccc(Cl)c2F)=N[C@]12CC[C@@H](C(C)(C)C)CC2` , log10 of IC50 read as 3.60

Notebook: `CCCCC[C@H](c1ccc(C(=O)NCc2nn[nH]n2)cc1)N1C(=O)C(c2cc(Cl)cc(Cl)c2)=N[C@]12CC[C@@H](C(C)(C)C)CC2` , log10 of IC50 read as 2.49

Notebook: `CC(C)(C)CC[C@H](c1ccc(C(=O)NCc2nn[nH]n2)cc1)N1C(=O)C(c2cnccc2C(F)(F)F)=N[C@]12CC[C@@H](C(C)(C)C)CC2` , log10 of IC50 read as 1.98

Notebook: `C[C@H](c1ccc(C(=O)NCCC(=O)O)cc1)N1C(=O)C(c2cccc(C(F)(F)F)c2)=N[C@]12CC[C@@H](C(C)(C)C)CC2` , log10 of IC50 read as 3.34

Notebook: `CCC[C@H](c1ccc(C(=O)NCc2nn[nH]n2)cc1)N1C(=O)C(c2cc(Cl)cc(Cl)c2)=N[C@]12CC[C@@H](C(C)(C)C)CC2` , log10 of IC50 read as 2.70

Notebook: `C[C@H](c1ccc(C(=O)NCCC(=O)O)cc1)N1C(=O)C(c2ccccc2Cl)=N[C@]12CC[C@@H](C(C)(C)C)CC2` , log10 of IC50 read as 3.73

Notebook: CC(Cc1ccc(C(=O)NCCC(=O)O)cc1)N1C(=O)C(c2cc(Cl)cc(Cl)c2)=N[C@]12CC[C@@H](C(C)(C)C)CC2 (some centres not stated) , log10 of IC50 read as 3.11

Notebook: `CCCC[C@H](c1ccc(C(=O)NCc2nn[nH]n2)cc1)N1C(=O)C(c2cc(Cl)cc(Cl)c2)=N[C@]12CC[C@@H](C(C)(C)C)CC2` , log10 of IC50 read as 2.62

Notebook: `C[C@H](c1ccc(C(=O)NCCC(=O)O)cc1)N1C(=O)C(c2ccc(Cl)c(Cl)c2)=N[C@]12CC[C@@H](C(C)(C)C)CC2` , log10 of IC50 read as 3.51
